- System: COPD rats induced by smoke exposure
- protocol_notes: COPD induced by smoke exposure in rats: lung function FEV0.2/FVC
- Format: in vivo, Wistar rats
- experimental_setup: high dose group, oral
measured_parameter: effect in COPD rats compared with inhaled budesonide

molecule | measurement
CC(C)=CCC[C@](C)(O[C@@H]1O[C@H](CO)[C@@H](O)[C@H](O)[C@H]1O)[C@H]1CC[C@]2(C)[C@@H]1[C@H](O)C[C@@H]1[C@@]3(C)CC[C@H](O)C(C)(C)[C@@H]3CC[C@]12C [CK, ginsenoside compound K, reference compound] | superior to budesonide
CC(C)=CCC[C@](C)(O[C@@H]1OC(CO)[C@@H](O)[C@H](O)C1O)C1CC[C@]2(C)C1/C(=N\O)CC1[C@@]3(C)CC/C(=N\O)C(C)(C)C3CC[C@]12C (stereo partly drawn) | superior to budesonide
CC(C)=CCC[C@](C)(O[C@H]1OC(CO)[C@@H](O)[C@H](O)C1O)C1CC[C@]2(C)C1C(=O)CC1[C@@]3(C)CC[C@H](O)C(C)(C)C3CC[C@]12C (stereo partly drawn) | superior to budesonide
